Value source: the supplement of paper PMC6555819

# Test system: RARg:RXRa (NR concentration 270 nM, RXRa partner concentration 90 nM)
# method_summary: PBM binding z-score (relative to random genomic background probes); higher = stronger binding; sequences stand for … in GC…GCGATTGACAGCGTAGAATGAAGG
# if value of PBM binding z-score reaches 0.9, tag y; if it stays below, tag n

{"columns": ["sequence_string", "classification"],
 "data": [
  ["ATCTCTAGGTAAAGATAGTTCAGGGAATGCAAAT", "n"],
  ["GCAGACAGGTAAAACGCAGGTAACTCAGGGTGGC", "n"]
]}

stdin: Hello, I need to know if TATACAGGGTCAAAGGCTAGAGTACGAATGTCGA has measured PBM binding z-score not below 0.9. Thanks!
stdout: y

stdin: Tell me whether PBM binding z-score is at least 0.9 here: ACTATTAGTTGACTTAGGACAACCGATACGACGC
stdout: n

stdin: Check if PBM binding z-score >= 0.9 (inclusive). Item: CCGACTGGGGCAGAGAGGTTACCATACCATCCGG
stdout: y

stdin: Decide: PBM binding z-score of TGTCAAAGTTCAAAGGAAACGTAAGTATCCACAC >= 0.9?
stdout: y

stdin: Could you please find out whether ACTTACGGGTCAACGAGGTTAAAGCACGCGTATA has PBM binding z-score that meets 0.9 or exceeds it?
stdout: y

stdin: For this sequence, is measured PBM binding z-score 0.9 or higher? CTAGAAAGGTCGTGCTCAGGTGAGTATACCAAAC
stdout: y

###

# Tested on: RARg:RXRa (NR concentration 270 nM, RXRa partner concentration 90 nM)
# method_summary: PBM binding z-score (relative to random genomic background probes); higher = stronger binding; sequences stand for … in GC…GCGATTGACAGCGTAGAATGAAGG
# PBM binding z-score values compiled below
Provide a numeric answer; units are not to be included.

{"columns": ["sequence_string", "system_under_test", "property_name", "experimental_result"],
 "data": [
  ["TCGCGGAGGACACGAAGGTCAGAGCTTTCCAGAG", "RARg:RXRa (NR concentration 270 nM, RXRa partner concentration 90 nM)", "PBM binding z-score", 3.06],
  ["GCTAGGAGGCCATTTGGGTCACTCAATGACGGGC", "RARg:RXRa (NR concentration 270 nM, RXRa partner concentration 90 nM)", "PBM binding z-score", 1.5],
  ["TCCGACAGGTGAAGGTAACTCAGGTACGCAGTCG", "RARg:RXRa (NR concentration 270 nM, RXRa partner concentration 90 nM)", "PBM binding z-score", 0.325],
  ["TCGAGTAGGTTAGGGGCATTCAAAATGGCGTCGA", "RARg:RXRa (NR concentration 270 nM, RXRa partner concentration 90 nM)", "PBM binding z-score", 0.367],
  ["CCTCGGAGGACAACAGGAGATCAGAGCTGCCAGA", "RARg:RXRa (NR concentration 270 nM, RXRa partner concentration 90 nM)", "PBM binding z-score", 0.145]
]}

stdin: Name the reported PBM binding z-score value associated with the sequence GCTTGTAGATTAAGGTTAAGAAAGACTAAGCTAA
stdout: 0.49

stdin: # input sequence: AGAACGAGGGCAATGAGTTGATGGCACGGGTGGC ; wanted: its PBM binding z-score
stdout: 0.928

stdin: Recorded PBM binding z-score of TAGCCTAGGTCATGCGGGGCAGTATAGTGTCGGC , please.
stdout: 4.01

###

# Tested on: PPARa:RXRa (NR concentration 270 nM, RXRa partner concentration 90 nM)
# method_summary: PBM binding z-score (relative to random genomic background probes); higher = stronger binding; sequences stand for … in GC…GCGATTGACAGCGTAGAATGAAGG
Okay, here is how we bin by PBM binding z-score: group A: < 1; group B: ≥ 1 and < 3; group C: ≥ 3

Solved entries:
{"columns": ["sequence_string", "classification"],
 "data": [
  ["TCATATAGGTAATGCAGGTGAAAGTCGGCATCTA", "group B"],
  ["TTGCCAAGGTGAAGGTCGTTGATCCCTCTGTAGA", "group B"],
  ["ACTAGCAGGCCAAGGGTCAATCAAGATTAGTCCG", "group C"]
]}

stdin: Bin? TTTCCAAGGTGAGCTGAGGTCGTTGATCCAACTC
stdout: group B

stdin: Lab note: sort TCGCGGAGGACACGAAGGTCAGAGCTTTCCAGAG into the matching PBM binding z-score band.
stdout: group B

stdin: State the band of ATACCAAGGTGGTCGTGAGGTCGTTGATACTAAC
stdout: group B

stdin: Pick a category. Item: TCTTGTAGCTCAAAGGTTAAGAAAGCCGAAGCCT
stdout: group C

stdin: Pick a category. Item: GGAACGAGGGCAAAATTGATAGCATCTGTCGACG
stdout: group B

stdin: Which of the defined bands does the recorded PBM binding z-score of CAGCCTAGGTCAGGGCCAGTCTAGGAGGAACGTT sit within?
stdout: group B

###

# Tested on: RARa:RXR (NR concentration 270 nM, RXRa partner concentration 90 nM)
# method_summary: PBM binding z-score (relative to random genomic background probes); higher = stronger binding; sequences stand for … in GC…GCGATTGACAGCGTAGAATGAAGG
Label 1 when PBM binding z-score is at or above 0.9; anything below gets 0.

{"columns": ["sequence_string", "system_under_test", "classification"],
 "data": [
  ["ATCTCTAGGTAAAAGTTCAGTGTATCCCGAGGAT", "RARa:RXR (NR concentration 270 nM, RXRa partner concentration 90 nM)", 1],
  ["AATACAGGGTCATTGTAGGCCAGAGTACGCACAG", "RARa:RXR (NR concentration 270 nM, RXRa partner concentration 90 nM)", 1],
  ["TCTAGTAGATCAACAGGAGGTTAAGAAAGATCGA", "RARa:RXR (NR concentration 270 nM, RXRa partner concentration 90 nM)", 1],
  ["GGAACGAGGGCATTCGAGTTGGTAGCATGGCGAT", "RARa:RXR (NR concentration 270 nM, RXRa partner concentration 90 nM)", 0]
]}

Okay, now this sequence:
stdin: Given the entry ACTGACAGGTGAGTGAAGGTAACTCAGCTGGACG , answer whether its PBM binding z-score meets or surpasses 0.9.
stdout: 0

###

Entries and their PBM binding z-score
# System: RARb:RXRa (NR concentration 270 nM, RXRa partner concentration 90 nM)
# method_summary: PBM binding z-score (relative to random genomic background probes); higher = stronger binding; sequences stand for … in GC…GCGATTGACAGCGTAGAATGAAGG
The answer should be a number; do not append a unit.

Sample answers from the record:
{"columns": ["sequence_string", "experimental_result"],
 "data": [
  ["GCTAGCACGCCATTTGGGTCACTCAATGACGGGC", 0.997],
  ["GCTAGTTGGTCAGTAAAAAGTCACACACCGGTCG", 0.863],
  ["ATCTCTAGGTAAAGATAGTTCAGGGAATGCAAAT", 0.787],
  ["CAAAGTAGGTCACAGAGGTCAAAGTCCGTGCGTA", 5.14],
  ["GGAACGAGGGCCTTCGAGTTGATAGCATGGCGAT", -0.306],
  ["ATATCTAGGTAACAAGTTCAGTGAAAGAGAGGAC", 1.58],
  ["GGATCGAGGGCAAGTTGATAGCAGAGTTTGATGG", 2.49],
  ["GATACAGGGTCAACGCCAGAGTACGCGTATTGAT", 4.7],
  ["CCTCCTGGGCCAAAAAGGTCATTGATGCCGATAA", 3.9],
  ["AATACAGGGTCATCGTAGACCAGAGTACGCACAG", 4.3]
]}

stdin: Value lookup for PBM binding z-score; key = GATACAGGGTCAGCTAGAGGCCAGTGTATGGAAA
stdout: 4.15

stdin: What value of PBM binding z-score has been reported for the following sequence? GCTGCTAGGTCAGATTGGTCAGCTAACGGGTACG
stdout: 3.27

###

# Test system: LXRa homodimer (NR concentration 270 nM)
# method_summary: PBM binding z-score (relative to random genomic background probes); higher = stronger binding; sequences stand for … in GC…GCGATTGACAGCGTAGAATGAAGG
Listed here: items and their measured PBM binding z-score.

Take a look at these entries with their results.
{"columns": ["sequence_string", "PBM binding z-score"],
 "data": [
  ["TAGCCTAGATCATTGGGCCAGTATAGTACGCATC", -0.567],
  ["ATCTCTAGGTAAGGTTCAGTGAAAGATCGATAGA", 0.551],
  ["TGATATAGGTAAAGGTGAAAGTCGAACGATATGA", 0.291],
  ["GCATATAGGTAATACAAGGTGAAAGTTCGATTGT", 0.814]
]}

stdin: I have this sequence here, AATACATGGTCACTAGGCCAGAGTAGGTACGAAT , and I need its recorded PBM binding z-score.
stdout: -0.0579

stdin: Any idea what PBM binding z-score was measured for TTACCAAGGTGAAGGGTCGTTGATGCACGCCTTG ?
stdout: -0.449
